Measured values drawn from paper doi:10.1101/2025.04.28.650819v3 for this set.

- Target system: PheRS (Mycobacterium tuberculosis)
- Sequence (P9WFU3 whole entry): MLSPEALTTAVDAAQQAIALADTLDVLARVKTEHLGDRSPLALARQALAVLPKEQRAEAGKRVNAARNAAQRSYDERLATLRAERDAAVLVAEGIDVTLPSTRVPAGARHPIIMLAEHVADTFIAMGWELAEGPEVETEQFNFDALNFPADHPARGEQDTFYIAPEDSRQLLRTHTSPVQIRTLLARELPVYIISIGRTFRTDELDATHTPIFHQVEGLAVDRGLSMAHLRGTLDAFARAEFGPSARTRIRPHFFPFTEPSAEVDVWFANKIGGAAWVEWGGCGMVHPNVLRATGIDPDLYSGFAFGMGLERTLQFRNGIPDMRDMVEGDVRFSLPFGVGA
- Sequence (P9WFU1 whole entry partner): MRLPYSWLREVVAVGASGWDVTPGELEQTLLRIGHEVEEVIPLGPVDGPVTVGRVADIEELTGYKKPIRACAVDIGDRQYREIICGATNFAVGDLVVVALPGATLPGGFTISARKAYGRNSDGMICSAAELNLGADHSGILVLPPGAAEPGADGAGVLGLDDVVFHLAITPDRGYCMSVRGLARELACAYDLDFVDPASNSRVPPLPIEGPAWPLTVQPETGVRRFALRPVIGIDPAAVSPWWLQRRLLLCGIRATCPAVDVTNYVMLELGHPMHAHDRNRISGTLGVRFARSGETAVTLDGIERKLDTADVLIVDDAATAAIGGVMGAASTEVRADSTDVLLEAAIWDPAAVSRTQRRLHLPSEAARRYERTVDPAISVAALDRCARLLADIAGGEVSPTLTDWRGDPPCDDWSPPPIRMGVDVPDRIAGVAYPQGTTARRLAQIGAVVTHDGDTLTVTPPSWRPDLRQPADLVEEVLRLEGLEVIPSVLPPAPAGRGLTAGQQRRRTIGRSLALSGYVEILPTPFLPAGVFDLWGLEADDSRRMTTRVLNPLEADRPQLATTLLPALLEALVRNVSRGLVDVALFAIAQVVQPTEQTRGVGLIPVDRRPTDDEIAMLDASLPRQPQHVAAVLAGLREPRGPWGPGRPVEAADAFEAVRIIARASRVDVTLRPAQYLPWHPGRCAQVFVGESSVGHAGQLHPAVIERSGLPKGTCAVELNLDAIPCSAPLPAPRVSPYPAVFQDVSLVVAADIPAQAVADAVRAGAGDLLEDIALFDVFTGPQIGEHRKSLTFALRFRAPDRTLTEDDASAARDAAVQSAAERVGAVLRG
pIC50: −log10 of the molar value.
Value type: pIC50

1) O=C(Nc1cccc(-c2nn[nH]n2)c1)c1ccc2nc(-c3ccccc3)[nH]c2c1 3.92
